src = ChEMBL document CHEMBL1201862

- Test system: NCI-H23
- test-summary: NCI tumour cell line growth inhibition, 48 h
Activity calls are given as the source filed them. Rule as the data show it: active = GI50 up to about 1.1 µM and inactive = higher.
Entry note: the call must match one of yes (1) for active, no (0) for inactive

>  <compound>
CSc1nc(Cl)c2c(n1)Sc1nc3cc4c(cc3n1C2O)OCCO4 (stereo unspecified)

>  <discrete-label>
yes (1)

$$$$
>  <compound>
Cc1cccc2c(N)c3cccc(C(=O)NCC[N+](C)(C)Cc4sc(N5CCOCC5)nc4[N+](=O)[O-])c3nc12

>  <discrete-label>
no (0)

$$$$
>  <compound>
COC(=O)c1ccccc1C1CN=NC12Cc1cc(C)ccc1C2=O (stereo unspecified)

>  <discrete-label>
no (0)

$$$$
>  <compound>
C#CCOCC12C=CC(O1)C1COC(=O)C12 (stereo unspecified)

>  <discrete-label>
no (0)

$$$$
>  <compound>
COP(=O)(OC)[C@@](O)(c1ccccc1)[C@@H](O)[C@@H](O)c1ccccc1

>  <discrete-label>
no (0)

$$$$

In the following, a different compound is considered.
query: Hello, I am checking results. What call was entered for `COc1cc(C=C2N=C(c3ccccc3)N(n3c(-c4ccccc4)nc4ccccc4c3=O)C2=O)cc(OC)c1OC` ?
result: no (0)

---

Overview of recorded GI50 for various molecules
- System: MDA-MB-231
- test-summary: NCI tumour cell line growth inhibition, 48 h
The source made the active and inactive calls. Rule as the data show it: active = GI50 up to about 1.1 µM and inactive = higher.

Would you please look over these solved cases?
>  <molecule>
C[N+]1(C)CC=C(N2CCOCC2)CC1

>  <GI50>
> 10 µM (inactive)

$$$$
>  <molecule>
[BH3-][P+]1(CC[P@@+]([BH3-])(c2ccccc2)c2ccccc2OC)[C@@H](C)[C@@H](O)[C@H](O)[C@@H]1C (some centres undefined)

>  <GI50>
16 µM (inactive)

$$$$
>  <molecule>
CC(C)=CCC/C(C)=C/Cc1cc(/C=C/c2cc(O)c(CC=C(C)C)c(O)c2)cc(O)c1O

>  <GI50>
11.2 µM (inactive)

$$$$

In the following, a different molecule is considered.
query: Look up GI50 of `COC(=O)c1cc(CC2Cc3cc4c(cc3C2)CCC4)cc2c1CCC2` and report it.
result: > 100 µM (inactive)

---

- Test system: MDA-MB-231
- test-summary: NCI tumour cell line growth inhibition, 48 h
Activity calls are given as the source filed them. Cut-off read from the data, not from the text of the source: active = GI50 up to about 1.1 µM and inactive = higher.
Use one of these outcomes when replying: active, inactive

Observe how each entry below is paired with its result.
>  <compound>
CC1CC(=O)N(N(C)C)C2(C#N)C(=O)N=C(N)C12C#N (stereo not given)

>  <discrete-label>
inactive

$$$$
>  <compound>
OCC1CCC(n2cnc3c(O)ncnc32)O1 (stereo not given)

>  <discrete-label>
inactive

$$$$
>  <compound>
O=C(O)CNc1ccc(C(=O)O)cc1

>  <discrete-label>
inactive

$$$$
>  <compound>
CC1(C)OC(=O)C(Cc2ccccc2)(Cc2ccccc2)C(=O)O1

>  <discrete-label>
inactive

$$$$
>  <compound>
Fc1sc2c(c1F)C1CCC2C1 (stereo not given)

>  <discrete-label>
inactive

$$$$
>  <compound>
COc1cccc(C(=O)O[C@H]2[C@@H]3[C@]4(OC(C)=O)CO[C@@H]4C[C@H](O)[C@@]3(C)C(=O)[C@H](OC(C)=O)C3=C(C)[C@@H](OC(=O)[C@H](O)[C@@H](NC(=O)OC(C)(C)C)c4ccco4)C[C@]2(O)C3(C)C)c1

>  <discrete-label>
active

$$$$
>  <compound>
Cc1cc(OCc2nc(N)nc(N)c2-c2ccc(Cl)c(Cl)c2)ccc1[N+](=O)[O-]

>  <discrete-label>
active

$$$$
>  <compound>
CC(=O)NC1C(OCc2ccccc2)OC(CO)C(O)C1OCC(=O)N[C@@H](C)C(=O)N[C@H](CCC(=O)NCCNc1ccc([N+](=O)[O-])c2[nH]c3ccccc3c(=O)c12)C(N)=O (stereo not given in full)

>  <discrete-label>
inactive

$$$$

query: Call for entry `CN1C(=O)c2c(c3c4ccccc4n(C)c3c3c2c2ccccc2n3C)C1=O` :
result: inactive

query: Please share the test call associated with `Cc1ccc2nc3c(C)c(Cl)c(=O)cc-3sc2c1` .
result: inactive
